# System: MAP3K2, MAP3K3
# assay-comment: KiNativ assay
# Format: binding
# setup-conditions: H929 live cell
# Method: Biochemical IC50s of the compounds of the present disclosure against various kinases were measured in a KiNativ assay. Compounds were screened in duplicate at 10 μM in H929 live cell. IC50 was measured via Mass spectroscopy (MS).
t means recorded inhibition (10 μM) is 30% or above; f means it is below 30%.

Solved cases (3 shown):
[[record]]
smi = "CN(C1CC1)S(=O)(=O)c1ccc(-c2cnc(N)c(-c3ccc4c(c3)CCNC4=O)c2)c(F)c1"
class_label = "t"

[[record]]
smi = "Nc1ncc(-c2ccc(NS(=O)(=O)C3CC3)cc2F)cc1-c1ccc2c(c1)CCNC2=O"
class_label = "f"

[[record]]
smi = "COc1cc(NS(=O)(=O)C2CC2)ccc1-c1cnc(N)c(-c2ccc3c(c2)CCNC3=O)c1"
class_label = "f"


Quick check, inhibition (10 μM) >= 30%? Nc1ncc(-c2cccc3ncsc23)cc1-c1ccc2c(c1)CCNC2=O
f

Say whether Nc1ncc(-c2ccc(NS(=O)(=O)C3CC3)cc2OC2CCCCC2)cc1-c1ccc2c(c1)CCNC2=O shows inhibition (10 μM) of 30% or more.
f

Can Nc1ncc(-c2cccc([N+](=O)[O-])c2F)cc1-c1ccc2c(c1)CCNC2=O be said to have inhibition (10 μM) at or above 30%?
t

====

Recorded inhibition at 10 µM by entry
# tested-system: UniProtKB Q9Y6M4
# Sequence (Q9Y6M4 whole entry): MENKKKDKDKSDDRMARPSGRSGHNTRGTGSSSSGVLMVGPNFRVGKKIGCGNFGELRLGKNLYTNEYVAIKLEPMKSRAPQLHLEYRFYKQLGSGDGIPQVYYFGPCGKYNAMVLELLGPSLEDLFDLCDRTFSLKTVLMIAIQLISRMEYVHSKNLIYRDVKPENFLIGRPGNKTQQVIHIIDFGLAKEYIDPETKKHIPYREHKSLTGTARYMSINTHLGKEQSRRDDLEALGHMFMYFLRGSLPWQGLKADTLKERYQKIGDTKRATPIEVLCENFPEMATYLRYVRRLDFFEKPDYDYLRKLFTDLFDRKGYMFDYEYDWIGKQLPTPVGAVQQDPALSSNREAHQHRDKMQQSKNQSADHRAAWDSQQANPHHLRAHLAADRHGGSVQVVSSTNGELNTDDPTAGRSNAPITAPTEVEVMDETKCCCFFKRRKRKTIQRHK
# assay-comment: KiNativ assay
# Format: binding
# setup-conditions: H929 live cell, read-out: inhibition (10 μM)

The following molecules have reported results that may help.
[[record]]
smi = "COc1cc(NS(=O)(=O)C2CC2)ccc1-c1cnc(N)c(-c2ccc3c(c2)CCNC3=O)c1"
result_type = "inhibition at 10 µM"
result = "77.1%"

[[record]]
smi = "Nc1ncc(-c2ccc(NS(=O)(=O)C3CC3)cc2F)cc1-c1ccc2c(c1)CCNC2=O"
result_type = "inhibition at 10 µM"
result = "88.2%"

[[record]]
smi = "Nc1ncc(-c2ccc(NS(=O)(=O)C3CC3)cc2OC2CCCCC2)cc1-c1ccc2c(c1)CCNC2=O"
result_type = "inhibition at 10 µM"
result = "87.2%"

[[record]]
smi = "Nc1ncc(-c2cccc([N+](=O)[O-])c2F)cc1-c1ccc2c(c1)CCNC2=O"
result_type = "inhibition at 10 µM"
result = "93%"


Respond only with inhibition at 10 µM recorded for CN(C1CC1)S(=O)(=O)c1ccc(-c2cnc(N)c(-c3ccc4c(c3)CCNC4=O)c2)c(F)c1
93.8%

Look up and report measured inhibition at 10 µM for this entry: Nc1ncc(-c2cccc3ncsc23)cc1-c1ccc2c(c1)CCNC2=O
90.4%

====

# tested-system: UniProt Q58A45
# Sequence (Q58A45 whole entry): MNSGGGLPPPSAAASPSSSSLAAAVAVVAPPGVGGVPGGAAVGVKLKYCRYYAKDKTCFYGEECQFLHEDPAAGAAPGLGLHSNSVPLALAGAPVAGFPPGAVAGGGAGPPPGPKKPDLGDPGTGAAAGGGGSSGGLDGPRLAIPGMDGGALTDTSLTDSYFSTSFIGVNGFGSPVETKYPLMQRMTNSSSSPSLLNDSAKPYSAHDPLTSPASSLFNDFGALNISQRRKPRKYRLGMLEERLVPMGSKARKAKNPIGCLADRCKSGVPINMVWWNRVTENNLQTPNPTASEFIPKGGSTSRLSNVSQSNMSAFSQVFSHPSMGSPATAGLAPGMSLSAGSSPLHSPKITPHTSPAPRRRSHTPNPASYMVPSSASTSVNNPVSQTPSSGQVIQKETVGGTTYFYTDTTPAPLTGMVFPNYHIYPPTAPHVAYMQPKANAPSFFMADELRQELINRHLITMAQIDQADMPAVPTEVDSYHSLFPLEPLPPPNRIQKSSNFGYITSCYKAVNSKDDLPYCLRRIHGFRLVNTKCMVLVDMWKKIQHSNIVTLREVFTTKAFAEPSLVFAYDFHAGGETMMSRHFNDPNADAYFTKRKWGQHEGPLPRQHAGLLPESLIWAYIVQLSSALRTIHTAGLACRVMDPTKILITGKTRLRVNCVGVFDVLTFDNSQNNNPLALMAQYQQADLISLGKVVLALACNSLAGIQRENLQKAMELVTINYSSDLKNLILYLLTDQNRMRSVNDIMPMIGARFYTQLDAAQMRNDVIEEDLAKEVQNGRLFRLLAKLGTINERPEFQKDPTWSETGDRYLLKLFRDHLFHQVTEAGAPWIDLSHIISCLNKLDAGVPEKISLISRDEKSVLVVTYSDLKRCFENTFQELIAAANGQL
# assay-comment: KiNativ assay
# Format: binding
# setup-conditions: H929 live cell, read-out: inhibition (10 μM)
result-type: inhibition at 10 µM (%)
State the answer as a number, implicitly in %.

Here is how some compounds turned out for inhibition at 10 µM.
[[record]]
smi = "Nc1ncc(-c2ccc(NS(=O)(=O)C3CC3)cc2OC2CCCCC2)cc1-c1ccc2c(c1)CCNC2=O"
result_type = "inhibition at 10 µM"
quantitative_result = 5.8

[[record]]
smi = "CN(C1CC1)S(=O)(=O)c1ccc(-c2cnc(N)c(-c3ccc4c(c3)CCNC4=O)c2)c(F)c1"
result_type = "inhibition at 10 µM"
quantitative_result = -45.1

[[record]]
smi = "Nc1ncc(-c2cccc([N+](=O)[O-])c2F)cc1-c1ccc2c(c1)CCNC2=O"
result_type = "inhibition at 10 µM"
quantitative_result = -7.1

[[record]]
smi = "Nc1ncc(-c2ccc(NS(=O)(=O)C3CC3)cc2F)cc1-c1ccc2c(c1)CCNC2=O"
result_type = "inhibition at 10 µM"
quantitative_result = -39.1


Write down inhibition at 10 µM measured for item Nc1ncc(-c2cccc3ncsc23)cc1-c1ccc2c(c1)CCNC2=O
-4

Note down inhibition at 10 µM recorded for COc1cc(NS(=O)(=O)C2CC2)ccc1-c1cnc(N)c(-c2ccc3c(c2)CCNC3=O)c1
14.3
